The reported measurements were obtained from ChEMBL document CHEMBL1201862.

system: A549; assay: NCI tumour cell line growth inhibition, 48 h
Active and inactive are the calls of the source. No stated cut-off is given here; in the data, active = GI50 up to about 1.1 µM and inactive = higher.
In this section, each of the molecules is paired with its reported GI50.

Answered examples (10):
{"molecule": "COC1=CC(=O)O/C1=C(\\OC)C1OC1c1ccccc1 (centres undefined)", "recorded_metric": "GI50", "observed_value": "> 100 µM (inactive)"}
{"molecule": "CC(C)=CC1CCc2ccccc2N1S(=O)(=O)c1ccc(C)cc1 (centres undefined)", "recorded_metric": "GI50", "observed_value": "1.22 µM (inactive)"}
{"molecule": "NNC(=S)NCCNC(=S)NN", "recorded_metric": "GI50", "observed_value": "> 100 µM (inactive)"}
{"molecule": "[N-]=[N+]=NC(CI)c1cn([C@H]2C[C@H](O)[C@@H](CO)O2)c(=O)[nH]c1=O (some centres undefined)", "recorded_metric": "GI50", "observed_value": "41.5 µM (inactive)"}
{"molecule": "Cc1ncc2c(n1)CCC1=C2OS(=O)(=O)CC1N(C)C (centres undefined)", "recorded_metric": "GI50", "observed_value": "> 100 µM (inactive)"}
{"molecule": "C=C1c2nc3ccccc3n2C=C(c2ccc(OC)cc2)N1c1ccc(OC)cc1", "recorded_metric": "GI50", "observed_value": "21.3 µM (inactive)"}
{"molecule": "COc1ccc(CC2(O)C3CC4CCC2C4C3)cc1 (centres undefined)", "recorded_metric": "GI50", "observed_value": "79.4 µM (inactive)"}
{"molecule": "CC(=O)NNc1nc(C)c(C(=O)NNC(=O)C(=O)Nc2ccc(C)c(C)c2)s1", "recorded_metric": "GI50", "observed_value": "> 100 µM (inactive)"}
{"molecule": "O=C(O)c1ccccc1CC1Cc2ccc3c(c2C1=O)CCC3 (centres undefined)", "recorded_metric": "GI50", "observed_value": "> 100 µM (inactive)"}
{"molecule": "O=C(CC(=O)Nc1ccccc1Cl)NNC(c1cc(/N=N/c2ccc(Br)cc2)ccc1O)P(O)O (centres undefined)", "recorded_metric": "GI50", "observed_value": "3.82 µM (inactive)"}

Item NC(CCCCNCc1ccccc1)C(=O)O (centres undefined) has what recorded GI50?
> 100 µM (inactive)

Item O=C1C2C(C(=O)N1c1ccccc1)C1([N+](=O)[O-])C=C3c4ccccc4N(C(=O)c4ccccc4)C32C2C(=O)N(c3ccccc3)C(=O)C21 (centres undefined) has what recorded GI50?
> 100 µM (inactive)

Item O=c1cnnc2sc(=S)[nH]n12 has what recorded GI50?
46.7 µM (inactive)

Item S=C1/C(=N/c2ccccc2)N(C2CCCCC2)/C(=N\C2CCCCC2)N1c1ccccc1 has what recorded GI50?
60 µM (inactive)

Item CC(C)(C)OC(=O)NC(Cc1ccccc1)C(=O)N[C@H]1c2ccsc2/C(=N/O)[C@H]1O (some centres undefined) has what recorded GI50?
> 100 µM (inactive)

Item COc1c2c(cc3c1C(O)N1CC[C@]34[C@H]3O[C@H]3[C@H](OC)C[C@@H]14)OCO2 (some centres undefined) has what recorded GI50?
> 100 µM (inactive)

Item O=C(O)c1ccccc1NCn1c(=S)sc2ccccc21 has what recorded GI50?
68.7 µM (inactive)

Item Oc1ccc(-c2c3c(nc4c2CCc2ccc(Br)cc2-4)-c2cc(Br)ccc2CC3)cc1 has what recorded GI50?
19.8 µM (inactive)

Item COc1ccc2c(c1O)[C@@]13CCCC=C1[C@@H](C2)[N+](C)(C)CC3 has what recorded GI50?
> 100 µM (inactive)

Item COc1ccc(/C=C(\C2=NC(=O)CS2)c2nc3ccccc3[nH]2)cc1 has what recorded GI50?
> 100 µM (inactive)

Item C=C(C)C(=O)O[C@H]1CC2=CC(CC(C)=C[C@H]3OC(=O)C(=C)C13)OC2=O (some centres undefined) has what recorded GI50?
> 100 µM (inactive)

Item O=C(CCl)N1CCCCC1C1(c2cc3ccccc3[nH]2)OCCO1 (centres undefined) has what recorded GI50?
5.61 µM (inactive)

Item O=c1sc(Nc2ccc3ccccc3c2Cl)nc2ccccc12 has what recorded GI50?
> 100 µM (inactive)

Item O=C1N/C(=N/N=C/C(O)C(O)C(O)C(O)CO)N/C1=C\c1cccs1 (centres undefined) has what recorded GI50?
94.4 µM (inactive)

====

test system: NCI-H522; test: NCI tumour cell line growth inhibition, 48 h
The source made the active and inactive calls. No stated cut-off is given here; in the data, active = GI50 up to about 1.1 µM and inactive = higher. Non-standard residues stand in square brackets, D forms with d. Residues, ends and D or L forms follow the SMILES beside them. *: point of attachment. hSer = N[CH](CCO)C(=O)O; Boc = CC(C)(C)OC(=O)*
recorded_metric: GI50

Answered examples (8):
{"compound": "O=C1c2cccc3cccc(c23)C(=O)N1O", "GI50": "37.2 µM (inactive)"}
{"compound": "O=C1/C(=C/c2ccc(Cl)c(Cl)c2)CNC/C1=C\\c1ccc(Cl)c(Cl)c1", "GI50": "11 µM (inactive)"}
{"compound": "[N-]=[N+]=NC1(c2ccccc2)C(=O)c2cccc3c4ccccc4n(c23)C1=O (stereo not given)", "GI50": "45.6 µM (inactive)"}
{"compound": "CC(=O)CC(=O)N(CCN(C(=O)CC(C)=O)c1ccccc1)c1ccccc1", "GI50": "84.7 µM (inactive)"}
{"compound": "CO[C@H]1c2cccc3cccc(c23)[C@@H]1n1[nH]c(=O)n(C(C)(C)C)c1=O", "GI50": "> 100 µM (inactive)"}
{"compound": "CCN(CC)CCNC(=O)c1cc2cc(NC(=O)c3cc4cc(NC(=O)c5cc6cc(N)ccc6[nH]5)ccc4[nH]3)ccc2[nH]1", "GI50": "> 100 µM (inactive)"}
{"compound": "CN(C)CCCOC(=O)C(c1ccccc1)C1(O)CCSCC1 (stereo not given)", "GI50": "> 100 µM (inactive)"}
{"compound": "COCCC(NC(=O)C(CC(C)C)NC(=O)OC(C)(C)C)C(N)=O (stereo not drawn) (Boc-Leu-[hSer](Me)-NH2; configuration not given here)", "GI50": "> 100 µM (inactive)"}

// lookup GI50 | system=NCI-H522 | key= Cc1nc(N)nc2ccccc12
> 100 µM (inactive)

// lookup GI50 | system=NCI-H522 | key= CCOC(=O)C1CCn2c(nc3c(=O)n(C)c(=O)n(C)c32)S1 (stereo not given)
> 100 µM (inactive)

// lookup GI50 | system=NCI-H522 | key= C=CC(C)(C)c1cc([C@@H]2COc3cc(O)ccc3C2=O)c(O)c(O)c1OC
17 µM (inactive)

// lookup GI50 | system=NCI-H522 | key= COc1ccc2c(c1O)[C@@]13CCCC=C1[C@@H](C2)[N+](C)(C)CC3
63 µM (inactive)

// lookup GI50 | system=NCI-H522 | key= C[C@@H]1CC(=O)C[C@@H]2CC[C@H]3[C@@H]4CC[C@H](OC(=O)c5cccc6cc7ccccc7nc56)[C@H]4CC[C@@H]3[C@H]21
5.6 µM (inactive)

// lookup GI50 | system=NCI-H522 | key= Fc1cccc(/C=N/C23CC4CC(CC(C4)C2)C3)c1
> 100 µM (inactive)

// lookup GI50 | system=NCI-H522 | key= COC(=O)[C@]12C3=C(O)C(=O)C[C@H]1OC[C@H]2C=CC3
20.1 µM (inactive)

====

test system: SK-MEL-28; assay: NCI tumour cell line growth inhibition, 48 h
The source made the active and inactive calls. No stated cut-off is given here; in the data, active = GI50 up to about 1.1 µM and inactive = higher.
In this section, each of the compounds is paired with its reported GI50.

Answered examples (2):
{"compound": "O=C(CCl)N1CCCCC1C1(c2cc3ccccc3[nH]2)OCCO1 (configuration not stated)", "observed_value": "11.6 µM (inactive)"}
{"compound": "COc1ccc(-c2nc(-c3cnccn3)n(Cc3ccccc3)n2)cc1", "observed_value": "> 100 µM (inactive)"}

Item CC1C(/C=C/c2ccoc2)ON2CCCC12 (configuration not stated) has what recorded GI50?
> 100 µM (inactive)

Item CC(=O)c1cc2sc3ccccc3c2[nH]1 has what recorded GI50?
> 100 µM (inactive)

Item O=c1cnnc2sc(=S)[nH]n12 has what recorded GI50?
65.5 µM (inactive)

Item CSCC[C@H]1C(=O)N=C(N)N1C(=O)OCc1ccccc1 has what recorded GI50?
24.2 µM (inactive)

Item CO[C@H]1c2cccc3cccc(c23)[C@@H]1n1[nH]c(=O)n(C(C)(C)C)c1=O has what recorded GI50?
> 100 µM (inactive)

Item Oc1ccc(-c2c3c(nc4c2CCc2ccc(Br)cc2-4)-c2cc(Br)ccc2CC3)cc1 has what recorded GI50?
20.6 µM (inactive)

Item COC(=O)C1=C(C(=O)OC)SC2(S1)C(C(=O)OC)=C(C(=O)OC)Sc1c2ss/c1=N/C(C)(C)C has what recorded GI50?
2.07 µM (inactive)

Item O=c1c2ccccc2nc(Cc2nc(-c3ccc(Cl)cc3)cs2)n1-c1ccc(Cl)cc1 has what recorded GI50?
23.8 µM (inactive)

Item COc1ccc2c(-c3ccc(O)cc3)c(Oc3ccc(Cl)cc3)c(=O)oc2c1 has what recorded GI50?
7.71 µM (inactive)

Item COC(C(O)c1ccc2c(c1)OCO2)P(=O)(c1ccccc1)c1ccccc1 (configuration not stated) has what recorded GI50?
> 100 µM (inactive)
